Origin of values: paper PMC7787346

# PROTOCOL_SUMMARY: Plasma pharmacokinetics of selinexor
# Type: in vivo, human
# MEASUREMENT_CONTEXT: human, plasma, po, 60 mg, Cmax, selinexor 60 mg oral, day 1, 4 patients, plasma
OBSERVATION_TYPE: Cmax (ng/mL)

>>> df
                                   compound  observed
0  O=C(/C=C\n1cnc(-c2cc(C(F)(F)F)cc(C(F)(F)F)c2)n1)NNc1cnccn1 [selinexor]       457

----------
# PROTOCOL_SUMMARY: Plasma pharmacokinetics of selinexor
# Type: in vivo, human
# MEASUREMENT_CONTEXT: human, plasma, po, 80 mg, Cmax, selinexor 80 mg oral, day 15, 13 patients
OBSERVATION_TYPE: Cmax (ng/mL)

>>> print(df.to_string())
                                   molecule    uom  observed
0  O=C(/C=C\n1cnc(-c2cc(C(F)(F)F)cc(C(F)(F)F)c2)n1)NNc1cnccn1 [selinexor]  ng/mL       482

----------
# PROTOCOL_SUMMARY: Plasma pharmacokinetics of selinexor
# Assay type: in vivo, human
# MEASUREMENT_CONTEXT: human, plasma, po, 80 mg, AUC0–8h, selinexor 80 mg oral, day 15, 13 patients
OBSERVATION_TYPE: AUC(0-t) (ng·h/mL)

                                   compound  observation_type  observed
0  O=C(/C=C\n1cnc(-c2cc(C(F)(F)F)cc(C(F)(F)F)c2)n1)NNc1cnccn1 [selinexor]          AUC(0-t)      2100

----------
# PROTOCOL_SUMMARY: Plasma pharmacokinetics of selinexor
# Format: in vivo, human
# MEASUREMENT_CONTEXT: human, plasma, po, 60 mg, Mean Cmax, selinexor 60 mg oral, day 1, 4 patients
OBSERVATION_TYPE: Cmax (nM)

>>> df
                                   compound  uom  observed
0  O=C(/C=C\n1cnc(-c2cc(C(F)(F)F)cc(C(F)(F)F)c2)n1)NNc1cnccn1 [selinexor]   nM      1030

----------
# PROTOCOL_SUMMARY: Plasma pharmacokinetics of selinexor
# Type: in vivo, human
# MEASUREMENT_CONTEXT: human, plasma, po, 60 mg, Tmax, selinexor 60 mg oral, day 15, 3 patients
OBSERVATION_TYPE: Tmax (h)

In [3]: df
Out[3]:
                                   molecule  observation_type  observed
0  O=C(/C=C\n1cnc(-c2cc(C(F)(F)F)cc(C(F)(F)F)c2)n1)NNc1cnccn1 [selinexor]              Tmax         4

----------
# PROTOCOL_SUMMARY: Plasma pharmacokinetics of selinexor
# Format: in vivo, human
# MEASUREMENT_CONTEXT: human, plasma, po, 80 mg, AUC0–8h, selinexor 80 mg oral, day 1, 17 patients
OBSERVATION_TYPE: AUC(0-t) (ng·h/mL)

In [3]: df
Out[3]:
                                   compound  observation_type  observed
0  O=C(/C=C\n1cnc(-c2cc(C(F)(F)F)cc(C(F)(F)F)c2)n1)NNc1cnccn1 [selinexor]          AUC(0-t)      2590

----------
# PROTOCOL_SUMMARY: Plasma pharmacokinetics of selinexor
# Assay type: in vivo, human
# MEASUREMENT_CONTEXT: human, plasma, po, 80 mg, Mean Cmax, selinexor 80 mg oral, day 1, 17 patients
OBSERVATION_TYPE: Cmax (nM)

>>> df
                                   compound  observed
0  O=C(/C=C\n1cnc(-c2cc(C(F)(F)F)cc(C(F)(F)F)c2)n1)NNc1cnccn1 [selinexor]      1360

----------
# PROTOCOL_SUMMARY: Plasma pharmacokinetics of selinexor
# Type: in vivo, human
# MEASUREMENT_CONTEXT: human, plasma, po, 60 mg, Cmax, selinexor 60 mg oral, day 15, 3 patients
OBSERVATION_TYPE: Cmax (ng/mL)

                                   compound    uom  observed
0  O=C(/C=C\n1cnc(-c2cc(C(F)(F)F)cc(C(F)(F)F)c2)n1)NNc1cnccn1 [selinexor]  ng/mL       392

----------
# PROTOCOL_SUMMARY: Plasma pharmacokinetics of selinexor
# Format: in vivo, human
# MEASUREMENT_CONTEXT: human, plasma, po, 80 mg, Cmax, selinexor 80 mg oral, day 1, 17 patients
OBSERVATION_TYPE: Cmax (ng/mL)

                                   compound    uom  observed
0  O=C(/C=C\n1cnc(-c2cc(C(F)(F)F)cc(C(F)(F)F)c2)n1)NNc1cnccn1 [selinexor]  ng/mL       601

----------
# PROTOCOL_SUMMARY: Plasma pharmacokinetics of selinexor
# Assay type: in vivo, human
# MEASUREMENT_CONTEXT: human, plasma, po, 60 mg, AUC0–8h, selinexor 60 mg oral, day 1, 4 patients
OBSERVATION_TYPE: AUC(0-t) (ng·h/mL)

>>> print(df.to_string())
                                   molecule      uom  observed
0  O=C(/C=C\n1cnc(-c2cc(C(F)(F)F)cc(C(F)(F)F)c2)n1)NNc1cnccn1 [selinexor]  ng·h/mL      1850

----------
# PROTOCOL_SUMMARY: Plasma pharmacokinetics of selinexor
# Format: in vivo, human
# MEASUREMENT_CONTEXT: human, plasma, po, 60 mg, AUC0–8h, selinexor 60 mg oral, day 15, 3 patients
OBSERVATION_TYPE: AUC(0-t) (ng·h/mL)

>>> df
                                   compound  observed
0  O=C(/C=C\n1cnc(-c2cc(C(F)(F)F)cc(C(F)(F)F)c2)n1)NNc1cnccn1 [selinexor]      1710
